Property: EC50, CreLuc reporter, 0.5% hP; scope: individual binders
Biological target: T1, human neuropeptide Y2 receptor (human, UniProt P49146 1-381)
T1 sequence (looked up): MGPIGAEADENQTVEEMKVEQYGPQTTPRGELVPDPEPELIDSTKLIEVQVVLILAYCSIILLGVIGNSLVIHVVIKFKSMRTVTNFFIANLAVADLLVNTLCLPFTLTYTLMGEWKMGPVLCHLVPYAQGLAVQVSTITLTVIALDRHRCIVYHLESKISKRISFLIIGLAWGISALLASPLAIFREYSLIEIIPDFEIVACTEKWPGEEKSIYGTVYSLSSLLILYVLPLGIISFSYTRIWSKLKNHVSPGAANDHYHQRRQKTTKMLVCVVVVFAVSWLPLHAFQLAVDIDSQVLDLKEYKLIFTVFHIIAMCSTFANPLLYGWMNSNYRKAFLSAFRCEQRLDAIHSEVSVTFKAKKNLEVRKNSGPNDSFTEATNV
Assay: cell-based or functional assay
*1 amine or outer side, *2 acyl side, *3 side chain or, on linkers, in order; H or OH if unused. Where no end group is shown, it is not given here. Side-chain parts run from the residue outwards. [ ]: non-standard residue; d: D form. The star is where a group is joined. C20 diacid = O=C(O)CCCCCCCCCCCCCCCCCCC(=O)*; C18 diacid = O=C(O)CCCCCCCCCCCCCCCCC(=O)*; γGlu = O=C(O)[C@H](CCC(=O)[*:2])N[*:1]; εLys = N[C@@H](CCCCN[*:1])C(=O)[*:2]; dtOrn = not defined here; AEEA = NCCOCCOCC(=O)O; Aib = CC(C)(N)C(=O)O
Value expressed in nM; do not type the unit.

As a guide, the following entries are already answered.
Exercise: Param item = Y[Aib]EGTFTSDYSI[Aib]LEKQAQ[Aib]AFVRHLINK([γGlu-γGlu-AEEA-γGlu-γGlu-γGlu-γGlu-C20 diacid])[Aib]TRQRY-NH2 [Compound 136] ; retrieve measured EC50, CreLuc reporter, 0.5% hP.
Solution: 38.5

Exercise: Now consider YXEGTFTSDYSIXLEKQAQXAFVRHLINKXTRQXY (Aib at 2, 13, 20, 30; bhArg at 34; Lys29 epsilon-amino: C18DA-gGlu-gGlu-gGlu-gGlu-gGlu-gGlu-eLys; C-terminal amide) [Compound 146] .
Solution: 51.5

Exercise: Now the binder YXEGTFTSDYSIXLEKQAAXAFVRHLINKXTRQRY (Aib at 2, 13, 20, 30; Lys29 epsilon-amino: C18DA-gGlu-gGlu-gGlu-gGlu-gGlu-gGlu-eLys; C-terminal amide) [Compound 111]
Solution: 53.6

Exercise: Now the same for Y[Aib]EGTFTSDLSI[Aib]LEKQAQ[Aib]AFVRHLINK([εLys-γGlu-γGlu-γGlu-γGlu-γGlu-γGlu-γGlu-C20 diacid])[Aib]TRQRY-NH2 [Compound 135]
Solution: 18.8

Exercise: Check Y[Aib]EGTFTSDYSI[Aib]LEKQAQ[Aib]AFVRHLINK([dtOrn-γGlu-γGlu-γGlu-γGlu-γGlu-γGlu-C18 diacid])[Aib]TRQRY-NH2 (reading uncertain) [Compound 87] too.
Solution: 16.5

***
Exercise: Find the recorded EC50, CreLuc reporter, 0.5% hP belonging to YXEGTFTSDYSIALEKQAQXAFVRHLINKXTRQRY (Aib at 2, 20, 30; Lys29 epsilon-amino: C18DA-gGlu-gGlu-gGlu-gGlu-gGlu-gGlu-eLys; C-terminal amide) [Compound 165] and report it.
Solution: 17.1

Exercise: And what about the binder YXEGTFTSDYSIXLEKQAQXAFVRHLINKATRQRY (Aib at 2, 13, 20; Lys29 epsilon-amino: C18DA-gGlu-gGlu-gGlu-gGlu-gGlu-gGlu-eLys; C-terminal amide) [Compound 159] ?
Solution: 11.5

Exercise: Next record, please: YXEGTFTSDYSIXLEKQAQXAFVRHLINKXTRQRY (Aib at 2, 13, 20, 30; Lys29 epsilon-amino: C18DA-gGlu-gGlu-gGlu-gGlu-gGlu-OEG; C-terminal amide) [Compound 140]
Solution: 22
